Task for the reader: assign each of the following variants its reported reverse-splicing fitness.
B1: Azoarcus group I ribozyme (parent)
chain: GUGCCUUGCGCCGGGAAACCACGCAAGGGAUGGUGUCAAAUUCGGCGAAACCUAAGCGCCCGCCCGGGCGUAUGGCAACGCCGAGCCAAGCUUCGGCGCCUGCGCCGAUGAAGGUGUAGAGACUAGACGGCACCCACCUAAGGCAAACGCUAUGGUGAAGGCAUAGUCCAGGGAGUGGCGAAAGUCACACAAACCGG

- Variants of: B1
- assay procedure: reverse-splicing fitness (ratio to wild type); higher = more active; in vitro selection; Mg2+ level not given
Form field (numeric): enter value without unit.

Data request: Fill in reported reverse-splicing fitness for this entry: A120G C150G U176C
Data returned: 0.0392

Data request: Fill in reported reverse-splicing fitness for this entry: A120C C150A C169A U176A
Data returned: 0.0193

Data request: Fill in reported reverse-splicing fitness for this entry: C82A A111U A120U C169G
Data returned: 0.00434

Data request: Fill in reported reverse-splicing fitness for this entry: C82U A111C A145C C150U C169A U176G
Data returned: 0.00687

Data request: Fill in reported reverse-splicing fitness for this entry: A111U A120U A145U C150A C169A
Data returned: 0.00249

Data request: Fill in reported reverse-splicing fitness for this entry: C82U A145G C150U C169A
Data returned: 0.0113

Data request: Fill in reported reverse-splicing fitness for this entry: A120U A145C C150A C169A U176G
Data returned: 0.00203

Data request: Fill in reported reverse-splicing fitness for this entry: C82U A111C A120U A145U C169G
Data returned: 0.00369

Data request: Fill in reported reverse-splicing fitness for this entry: C82A A111C A145U C150G C169A U176G
Data returned: 0.00861

Data request: Fill in reported reverse-splicing fitness for this entry: C82G A111G A145G U176C
Data returned: 0.27

Data request: Fill in reported reverse-splicing fitness for this entry: C82U A120U A145C C150U U176C
Data returned: 0.0162

Data request: Fill in reported reverse-splicing fitness for this entry: A111C A120U A145C C169U U176A
Data returned: 0.0108

Data request: Fill in reported reverse-splicing fitness for this entry: C82U A111U A120C A145C C150G U176A
Data returned: 0.00494

Data request: Fill in reported reverse-splicing fitness for this entry: A111C A120G C169A U176C
Data returned: 0.0306

Data request: Fill in reported reverse-splicing fitness for this entry: C82A A111C A120U A145C C150A C169U U176G
Data returned: 0.00263

Data request: Fill in reported reverse-splicing fitness for this entry: C82G A111C A120U A145U C150A C169A U176G
Data returned: 0.00195

Data request: Fill in reported reverse-splicing fitness for this entry: C82A A111U A120U A145C C169G
Data returned: 0.00342

Data request: Fill in reported reverse-splicing fitness for this entry: C82U A111U A120G A145C C150G C169U
Data returned: 0.00686

Data request: Fill in reported reverse-splicing fitness for this entry: C82U A111U A120C A145C C150A C169U U176A
Data returned: 0.0149

Data request: Fill in reported reverse-splicing fitness for this entry: C82U A111U C150A U176G
Data returned: 0.00896

Data request: Fill in reported reverse-splicing fitness for this entry: C82G A111C A120C A145C
Data returned: 0.0447

Data request: Fill in reported reverse-splicing fitness for this entry: A111U A120C A145U C169U U176A
Data returned: 0.0319
